All figures here come from PubChem BioAssay AID1063.

Assay text: Leishmania major promastigote growth inhibition, primary screen (AID 1063);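 note: promastigotes grown with compound for 44 hours at 28 °C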
Assay conditions: Leishmania major promastigotes, resazurin fluorescence viability; at 10 µM; active compounds read high
In all, about 200,000 compounds went through this assay and about 18,000 (9%) were called active. The sample holds actives, similar compounds and a random draw of the others, so the mix is not that of the screen.
Test readout: inhibition

In [3]: df
Out[3]:
                                   molecule        measurement
0    Cc1cccc(NC(=S)NCCN(C2CCCCC2)C2CCCC2)c1   37.4% (inactive)
1  COc1ccc(C(C(=O)NC2CCCCC2)N(C(=O)CCl)c2ccccc2Cl)cc1 (centres undefined)  -1.95% (inactive)
2   Cc1ccc(NC(=O)COc2ccc(-n3ccnc3)cc2)cc1Cl     86.5% (active)

Value lookup for inhibition; key = `COCCCNC(=O)c1ccc2c(c1)ncn2-c1ccccc1OC` -1.51% (inactive)

Value lookup for inhibition; key = `Cc1ccc(NC(=S)N(CCN2CCCCC2)Cc2ccco2)cc1C` 13.2% (inactive)

Value lookup for inhibition; key = `Cn1cc([N+](=O)[O-])c(C(=O)Nc2cnn(Cc3ccc(F)cc3)c2)n1` 98.6% (active)

Value lookup for inhibition; key = Cc1cccc(C)c1NC(=O)C1(C)c2cccc[n+]2CC(=O)N1Cc1cccs1 (centres undefined) 13.1% (inactive)

Value lookup for inhibition; key = `CCc1ccc2ncc(C(=O)c3ccccc3)c(N3CCOCC3)c2c1` 10.5% (inactive)

Value lookup for inhibition; key = `O=C(COC(=O)c1cnccn1)Nc1cccc2ccccc12` -4.62% (inactive)

Value lookup for inhibition; key = `Cc1cc(C)nc(SCC(=O)N(C)C)n1` -4.86% (inactive)

Value lookup for inhibition; key = `CC(C)C(=O)NC(=S)Nc1ccccc1F` -3.27% (inactive)

###

Quick list: inhibition per entry.
Assay text: Leishmania major promastigote growth inhibition, primary screen (AID 1063);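 note: promastigotes grown with compound for 44 hours at 28 °C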
Assay conditions: Leishmania major promastigotes, resazurin fluorescence viability; at 10 µM; active compounds read high
About 18,000 (9%) of roughly 200,000 compounds were called active. Many of the other results were omitted from the sample, so actives are more common in it than they were.
Answer in %, number only, no unit symbol.

In [3]: df
Out[3]:
                                   molecule  measurement
0  COc1ccc(Cc2nnc(SCC(=O)c3cccc([N+](=O)[O-])c3)n2C)cc1         7.37
1  COc1ccccc1NC(=O)COc1ccc(C(=O)OCC(=O)N(C(C)C)C(C)C)cc1OC        -1.06

Value lookup for inhibition; key = `COc1ccc(CCNS(=O)(=O)c2ccc(F)cc2)cc1OC` -4.28

Value lookup for inhibition; key = CC(C)C(c1nnnn1C(C)(C)C)N1CCN(Cc2cccnc2)CC1 (centres undefined) -1.86

Value lookup for inhibition; key = `CCCCNC(=O)Nc1c(C)cc(SC#N)cc1C` -2.51

Value lookup for inhibition; key = `Cc1cc([N+](=O)[O-])nn1Cc1ccc(F)cc1` 10.1

Value lookup for inhibition; key = `Cc1cc(N/N=C/c2ccccc2F)c2ccccc2n1` 12.3

Value lookup for inhibition; key = `O=C(NNc1ncnc2c1cnn2-c1ccccc1)c1ccco1` -5.13

Value lookup for inhibition; key = CCN(CCCCOC(=O)c1ccc(OC)c(OC)c1)C(C)Cc1ccc(OC)cc1 (centres undefined) 100

Value lookup for inhibition; key = `CCc1nnc(NC(=O)c2cccc(S(=O)(=O)N(C)c3ccc(OC)cc3)c2)s1` -0.19

Value lookup for inhibition; key = `Cc1nn(C)c(Oc2ccccc2)c1CCNS(=O)(=O)c1ccc(F)cc1` 97.5

Value lookup for inhibition; key = `COc1cccc(NCCC(=O)c2cccc([N+](=O)[O-])c2)c1` 85

Value lookup for inhibition; key = `C=CCNc1scc(-c2ccccc2)[n+]1CC=C` 9.84

Value lookup for inhibition; key = `N#Cc1c(C(F)(F)F)cc(-c2ccc(Cl)cc2)nc1SCC(=O)O` -6.26

###

Quick list: inhibition per entry.
Assay text: Leishmania major promastigote growth inhibition, primary screen (AID 1063);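 note: promastigotes grown with compound for 44 hours at 28 °C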
Assay conditions: Leishmania major promastigotes, resazurin fluorescence viability; at 10 µM; active compounds read high
In all, about 200,000 compounds went through this assay and about 18,000 (9%) were called active. The list comes from a sample in which actives are over-represented; it also holds close analogues and randomly drawn compounds.
Answer in %, number only, no unit symbol.

Below, each entry is followed by its recorded inhibition result.
>>> df
                               smiles_text  measurement
0  Cc1ccc(S(=O)(=O)c2ccc(Oc3ccccc3)cc2)cc1        -3.38
1        COC(=O)Cc1ccc(NC(=S)NCc2ccco2)cc1        -3.07

Value lookup for inhibition; key = `CC1=C/C(=N\OS(=O)(=O)c2ccccc2)C=CC1=O` 100

Value lookup for inhibition; key = `CCc1nnc(NC(=O)CCC(=O)O)s1` -2.47

Value lookup for inhibition; key = `Cc1cc(C(=O)Nc2ccccc2N2CCOCC2)c2ccccc2n1` 1.07

Value lookup for inhibition; key = `C/C(=N/OC(=O)c1c(-c2c(F)cccc2Cl)noc1C)c1cnccn1` 0.04

Value lookup for inhibition; key = `CC(C)(C)NC(=O)c1cccc(NC(=O)Cc2ccc(Br)cc2)c1` 94.5

Value lookup for inhibition; key = `COc1cccc(NC(=S)N(CCc2c(C)[nH]c3ccccc23)Cc2ccco2)c1` 19.9

Value lookup for inhibition; key = `COc1ccc(C(=O)Nc2cccc(S(C)(=O)=O)c2)cc1` -0.33

###

Assay text: Leishmania major promastigote growth inhibition, primary screen (AID 1063);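 note: promastigotes grown with compound for 44 hours at 28 °C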
Assay conditions: Leishmania major promastigotes, resazurin fluorescence viability; at 10 µM
About 18,000 (9%) of roughly 200,000 compounds were called active. No stated cut-off is given here; in the data, active means inhibition above about 50%; inactive means the rest. Shown is part of a subset that was picked to be rich in actives.
# output must be one of 1 = active, 0 = inactive

Look over these answered cases.
>>> print(df.to_string())
                                   molecule  category_label
0        CC(=O)c1cccc(NC(=O)Nc2ccc(C)cc2)c1               0
1  COCCNC(=O)c1ccc(N2CCC3(CC2)OCCO3)c([N+](=O)[O-])c1               1
2  Cc1cccc(NC(=S)NCc2ccc3[nH]c4c(c3c2)CCCC4)c1               0
3                    CCNC(=S)Nc1cccc(Cl)c1C               0
4  CCOC(=O)c1oc2c(CN3CCN(CCO)CC3)c(O)c(CC)cc2c(=O)c1-c1nc2ccccc2s1               0

Any idea what this test logged for `Cc1ccc(NC(=O)CC(=O)Nc2ccc(C)cc2)cc1` ? 0

Any idea what this test logged for `COC(=O)Cc1csc(/N=C/c2c(O)n(-c3cccc(C(F)(F)F)c3)c(=O)c3ccccc23)n1` ? 0

Any idea what this test logged for `C/C(=N\Nc1nc(N2CCOCC2)nc(N2CCOCC2)n1)c1ccc([N+](=O)[O-])cc1` ? 0

###

Assay text: Leishmania major promastigote growth inhibition, primary screen (AID 1063);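 note: promastigotes grown with compound for 44 hours at 28 °C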
Assay conditions: Leishmania major promastigotes, resazurin fluorescence viability; at 10 µM; active compounds read high
Among all 200,000 compounds or so, about 18,000 (9%) were called active. For the sample, actives were picked, then their nearest neighbours and some compounds at random.
Test readout: inhibition (%)
Answer in %, number only, no unit symbol.

Below, each entry is followed by its recorded inhibition result.
In [3]: df
Out[3]:
                                   compound  test_readout  unit  measurement
0  CCOc1ccc(CN2CCN(Cc3ccc(C)o3)CC2CCO)cc1 (stereo not given)    inhibition     %        -0.08
1  CC1=NN(C(=O)c2ccc(Br)cc2)C(O)(c2ccccc2)C1 (stereo not given)    inhibition     %        -9.77
2   Cc1ccc(/C=N/NC(=O)Cn2ccc(C(F)(F)F)n2)o1    inhibition     %        -8.92
3  CS(=O)(=O)N(CC(=O)N1CCN(Cc2ccccc2)CC1)c1ccc2c(c1)OCCO2    inhibition     %        -0.45

From here, focus on the item given below.
Value lookup for inhibition; key = `COc1ccccc1CNCc1cccs1` 7.82

###

Assay text: Leishmania major promastigote growth inhibition, primary screen (AID 1063);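 note: promastigotes grown with compound for 44 hours at 28 °C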
Assay conditions: Leishmania major promastigotes, resazurin fluorescence viability; at 10 µM; active compounds read high
Hit rate of the full screen: of about 200,000 compounds, about 18,000 (9%) were called active. The entries come from a sample that favours actives as a whole.
Test readout: inhibition (%)
Answer in %, number only, no unit symbol.

>>> df
                                   molecule  measurement
0     CN(C)c1ccc(CNC23CN4CN(CN(C4)C2)C3)cc1        -1.82
1  Cc1nn(CC(=O)Nc2ccc3c(c2)OCO3)c(C)c1[N+](=O)[O-]         7.29
2  COc1ccc(N2CCN(C(=O)CCSCc3ccccc3F)CC2)cc1         3.84
3  Cc1cccc(-n2c(Cc3cc(=O)[nH]c(=O)[nH]3)nnc2SCC(=O)Nc2cccc(C(F)(F)F)c2)c1        -1.75
4  Cc1cc(NC(=O)CCC(=O)N(c2cccc(F)c2)C(C(=O)NC2CCCC2)c2ccncc2)no1 (stereo not given)        -6.83

Value lookup for inhibition; key = `O=C(Cc1ccc(F)cc1)N1CCN=C1SCc1cccc([N+](=O)[O-])c1` 46.3

Value lookup for inhibition; key = O=C(CN1C(=O)CC(c2ccccc2)S(=O)(=O)c2ccccc21)NC1CCCC1 (stereo not given) 5.62

Value lookup for inhibition; key = `C/C(Cc1ccccc1)=N\NC(=O)CNC(=O)c1cccc(Br)c1` 51.4
